Below, each entry is listed with its recorded Total Cell Count.
System: U2OS
Experiment: Multiplex assay against U2OS
Type: toxicity, cell-based
Settings: human, 24 h, 1 µM, compound concentration 1 uM, replicate 1
# respond with the number and nothing more

Cc1sc2c(c1C)C(c1ccc(Cl)cc1)=N[C@H](CC(=O)OC(C)(C)C)c1nnc(C)n1-2 = 280

# get_value(readout='Total Cell Count', item= `CCCCC[C@H](O)/C=C/[C@H]1[C@H](O)CC(=O)[C@@H]1CCCCCCC(=O)O` )
263

# get_value(readout='Total Cell Count', item= `COc1ccc2c(c1OCc1ccccc1)C[C@@H](C(=O)O)N(C(=O)C(c1ccccc1)c1ccccc1)C2` )
311

----------
Below, each entry is listed with its recorded Population Hoechst High Intensity Objects (%).
Test system: U2OS
Test: Multiplex assay against U2OS
Format: toxicity, cell-based
Conditions: human, 12 h, 1 µM, compound concentration 1 uM, replicate 2
Report the figure in % without appending any unit label.

CCc1nn2c(C)cc(C)nc2c1Cc1ccc(-c2nnc(C3CCNCC3)o2)cc1 = 2
CSc1nc(NC2CCCC2)c([N+](=O)[O-])c(NC2CCCC2)n1 = 3

Given the entry `Nc1nc(-c2ccco2)c2cnn(Cc3ccccc3F)c2n1` , what Population Hoechst High Intensity Objects (%) was observed with U2OS?
0

Given the entry `CN1CCC(C(=O)c2cccc(NC(=O)c3c(F)cc(F)cc3F)n2)CC1` , what Population Hoechst High Intensity Objects (%) was observed with U2OS?
1

Given the entry O=C(O)CCC/C=C\CC1C(O)CC(O)C1/C=C/C(O)COc1cccc(Cl)c1 (centres undefined) , what Population Hoechst High Intensity Objects (%) was observed with U2OS?
0

Given the entry `Cc1nn(C)c2nc(NNC(=O)Nc3cc(Cl)nc(Cl)c3)cc(C(C)C)c12` , what Population Hoechst High Intensity Objects (%) was observed with U2OS?
2

Given the entry `Cc1cc(O)c(-c2ccc([C@@H](C)CN(C)C)cc2)c2c1[nH]c(=O)c1sccc12` , what Population Hoechst High Intensity Objects (%) was observed with U2OS?
2

Given the entry `O=C(Nc1cc(-c2ccccc2)nn1-c1ccccc1F)c1ccc([N+](=O)[O-])cc1` , what Population Hoechst High Intensity Objects (%) was observed with U2OS?
1

Given the entry `COc1cc2nc(N3CCN(C(=O)COc4c(OC)cccc4C(C)C)CC3)nc(N)c2cc1OC.Cl.Cl` , what Population Hoechst High Intensity Objects (%) was observed with U2OS?
2

Given the entry `Cc1c(Cc2ccc3ccccc3n2)c2cc(F)ccc2n1CC(=O)O` , what Population Hoechst High Intensity Objects (%) was observed with U2OS?
1

Given the entry `COc1ccc2[nH]c(I)c(CCNC(C)=O)c2c1` , what Population Hoechst High Intensity Objects (%) was observed with U2OS?
0

Given the entry `COc1ccc2c(c1OCc1ccccc1)C[C@@H](C(=O)O)N(C(=O)C(c1ccccc1)c1ccccc1)C2` , what Population Hoechst High Intensity Objects (%) was observed with U2OS?
3

Given the entry `CCCCC[C@H](O)/C=C/[C@H]1[C@H](O)CC(=O)[C@@H]1CCCCCCC(=O)O` , what Population Hoechst High Intensity Objects (%) was observed with U2OS?
0

Given the entry Cc1ccc(OCC(O)C(C)NC(C)C)c2c1CCC2.Cl (centres undefined) , what Population Hoechst High Intensity Objects (%) was observed with U2OS?
1

----------
Test system: Fibroblast
Assay: Multiplex assay against human fibroblast
Type: toxicity, cell-based
Details: 48 h, 10 µM, compound concentration 10 uM, replicate 1
Label y when Population Apoptotic (%) is at or above 60%; otherwise label n.

Consider the worked cases shown below.
CCn1c(-c2nc3cc(C(=O)N4CCCC(N)C4)ccc3n2C)cc2ccccc21.Cl (centres undefined) = y
CN1CCN(c2ccc(Nc3c4ccccc4nc4ccccc34)cc2)CC1.Cl.Cl.O = y
Cl.Cl.OCCOCCN1CCN(C(c2ccccc2)c2ccc(Cl)cc2)CC1 (centres undefined) [HYDROXYZINE HYDROCHLORIDE] = y
CCc1nn2c(C)cc(C)nc2c1Cc1ccc(-c2nnc(C3CCNCC3)o2)cc1 = y
CN(C)C(=O)Cn1cc(-c2ccc(-c3nnc4ccccn34)cc2)cn1 = n

Is Population Apoptotic (%) at least 60%? Consider COc1cc2nc(N3CCN(C(=O)c4ccco4)CC3)nc(N)c2cc1OC.Cl [PRAZOSIN HYDROCHLORIDE]
y

Is Population Apoptotic (%) at least 60%? Consider COCCCN1CCC(NC(=O)c2cc(Cl)c(N)c3c2OCC3)CC1 [PRUCALOPRIDE]
y

Is Population Apoptotic (%) at least 60%? Consider Cc1cc(NC(=O)NCCN2CCC(O)(Cc3ccccc3)CC2)c2ccccc2n1 [PALOSURAN]
n

Is Population Apoptotic (%) at least 60%? Consider `Cc1sc2c(c1C)C(c1ccc(Cl)cc1)=N[C@H](CC(=O)OC(C)(C)C)c1nnc(C)n1-2`
n

----------
Tested on: Fibroblast
Assay: Multiplex assay against human fibroblast
Format: toxicity, cell-based
Conditions: 48 h, 1 µM, compound concentration 1 uM, replicate 1
readout type: Total Cell Count
# respond with the number and nothing more

Example entries begin here.
COc1cc2nc(N3CCN(C(=O)c4ccco4)CC3)nc(N)c2cc1OC.Cl [PRAZOSIN HYDROCHLORIDE] = 182
OCCCNc1cc(-c2ccnc(Nc3cccc(Cl)c3)n2)ccn1 = 136
CC(C)(O)C(=O)N1CCN(c2ccc(C(F)(F)F)c(C3=C(c4c[nH]c5ccccc45)C(=O)NC3=O)c2)CC1 = 155

# get_value(readout='Total Cell Count', item= CN(C)C/C=C/C(=O)Nc1ccc(C(=O)N2CCCC(Nc3ncc(Cl)c(-c4c[nH]c5ccccc45)n3)C2)cc1 (centres undefined) )
150

----------
Test system: U2OS
Experiment: Multiplex assay against U2OS
Assay type: toxicity, cell-based
Conditions: human, 12 h, 10 µM, compound concentration 10 uM, replicate 2
readout type: Population Normal (%)
Report the figure in % without appending any unit label.

Example entries begin here.
COc1c(Nc2ccc(S(C)(=O)=O)nc2C)ncnc1OC1CCN(C(=O)OC(C)C)CC1 = 95
O=C(O)CCC/C=C\CC1C(O)CC(O)C1/C=C/C(O)COc1cccc(Cl)c1 (stereo not given) = 100
COc1cc(Nc2ncc3c(n2)-c2ccc(Cl)cc2C(c2c(F)cccc2OC)=NC3)ccc1C(=O)O = 97
CCCCC[C@H](O)/C=C/[C@H]1[C@H](O)CC(=O)[C@@H]1CCCCCCC(=O)O = 97
C=CCN1C[C@H](C(=O)N(CCCN(C)C)C(=O)NCC)C[C@@H]2c3cccc4[nH]cc(c34)C[C@H]21 = 97

# get_value(readout='Population Normal (%)', item= `Cc1cc(=O)n(C)c2cc(N3C(=O)CC[C@H](NS(=O)(=O)CC(C)C)[C@H]3c3ccc(Cl)cc3)ccc12` )
96

# get_value(readout='Population Normal (%)', item= `Cc1c(Cc2ccc3ccccc3n2)c2cc(F)ccc2n1CC(=O)O` )
99

# get_value(readout='Population Normal (%)', item= `Cc1cc(-c2ccc3c(c2)CC[C@H]3N2CC3(CCN(C(=O)Cc4cn5cc(C)sc5n4)CC3)C2)ncn1` )
98

# get_value(readout='Population Normal (%)', item= `Cc1cc(O)c(-c2ccc([C@@H](C)CN(C)C)cc2)c2c1[nH]c(=O)c1sccc12` )
91

# get_value(readout='Population Normal (%)', item= `OCCCNc1cc(-c2ccnc(Nc3cccc(Cl)c3)n2)ccn1` )
89

----------
Below, each entry is listed with its recorded Population Apoptotic (%).
Test system: HEK-293T
Assay: Multiplex assay against HEK293T
Type: toxicity, cell-based
Conditions: human, 12 h, 10 µM, compound concentration 10 uM, replicate 1
Remember to follow the number with its unit.

Example entries begin here.
COc1c(Nc2ccc(S(C)(=O)=O)nc2C)ncnc1OC1CCN(C(=O)OC(C)C)CC1 = 47%
Cc1cc(=O)n(C)c2cc(N3C(=O)CC[C@H](NS(=O)(=O)CC(C)C)[C@H]3c3ccc(Cl)cc3)ccc12 = 47%
C[C@H](NC(=O)CNC(=O)c1cccc(Cl)c1)c1ccccc1 = 41%
N[C@](CC1c2ccccc2Oc2ccccc21)(C(=O)O)[C@H]1C[C@@H]1C(=O)O = 32%

Given the entry COc1cc2nc(N3CCN(C(=O)c4ccco4)CC3)nc(N)c2cc1OC.Cl [PRAZOSIN HYDROCHLORIDE] , what Population Apoptotic (%) was observed with HEK-293T?
38%

Given the entry `CSc1nc(NC2CCCC2)c([N+](=O)[O-])c(NC2CCCC2)n1` , what Population Apoptotic (%) was observed with HEK-293T?
29%

Given the entry `COCCn1c(C)c(C)s/c1=N\C(=O)C1C(C)(C)C1(C)C` , what Population Apoptotic (%) was observed with HEK-293T?
77%

----------
System: HEK-293T
Test: Multiplex assay against HEK293T
Assay type: toxicity, cell-based
Details: human, 24 h, 1 µM, compound concentration 1 uM, replicate 1
Non-standard residues stand in square brackets, D forms with d. Residues, ends and D or L forms follow the SMILES beside them.
Below, each entry is listed with its recorded Population Membrane Permeable-Phenotype (%).
Report the figure in % without appending any unit label.

C[C@H](NC(=O)CNC(=O)c1cccc(Cl)c1)c1ccccc1 = 1
CC(C)C[C@@H]1NC(=O)[C@@H](C(C)C)NC(=O)[C@@H]2CCCN2C(=O)[C@@H](CC(=O)O)NC(=O)[C@@H](Cc2c[nH]c3ccccc23)NC1=O [BQ-123] (cyclo(L[dW][dD]P[dV])) = 0
Nc1nc(-c2ccco2)c2cnn(Cc3ccccc3F)c2n1 = 0

# get_value(readout='Population Membrane Permeable-Phenotype (%)', item= `C=CCN1C[C@H](C(=O)N(CCCN(C)C)C(=O)NCC)C[C@@H]2c3cccc4[nH]cc(c34)C[C@H]21` )
1

# get_value(readout='Population Membrane Permeable-Phenotype (%)', item= `COc1cc2nc(N3CCN(C(=O)COc4c(OC)cccc4C(C)C)CC3)nc(N)c2cc1OC.Cl.Cl` )
0

# get_value(readout='Population Membrane Permeable-Phenotype (%)', item= `C[C@@H]1CC(=O)Nc2cccc(-c3ccc4c(c3)c(-c3cnn(C)c3)nn4C)c2N1` )
0

# get_value(readout='Population Membrane Permeable-Phenotype (%)', item= `COc1cc(OC2CCN(C(C)=O)CC2)ccc1C(=O)N1CCC(N2C(=O)OCc3ccccc32)CC1` )
2

# get_value(readout='Population Membrane Permeable-Phenotype (%)', item= CN1CCN2c3ccccc3Cc3ccccc3C2C1.Cl (stereo not drawn) [MIANSERIN HYDROCHLORIDE] )
0

# get_value(readout='Population Membrane Permeable-Phenotype (%)', item= `Cc1sc2c(c1C)C(c1ccc(Cl)cc1)=N[C@H](CC(=O)OC(C)(C)C)c1nnc(C)n1-2` )
0

# get_value(readout='Population Membrane Permeable-Phenotype (%)', item= Cc1ccc(OCC(O)C(C)NC(C)C)c2c1CCC2.Cl (stereo not drawn) )
0

# get_value(readout='Population Membrane Permeable-Phenotype (%)', item= `CCCCCCNC(=O)Nc1ccc(S(=O)(=O)Nc2ccc(CCNC[C@H](O)COc3ccc(O)cc3)cc2)cc1` )
0

# get_value(readout='Population Membrane Permeable-Phenotype (%)', item= `Nc1nc(CC(=O)Nc2ccc(CCNC[C@H](O)c3ccccc3)cc2)cs1` )
0

# get_value(readout='Population Membrane Permeable-Phenotype (%)', item= `CCCCC[C@H](O)/C=C/[C@H]1[C@H](O)CC(=O)[C@@H]1CCCCCCC(=O)O` )
1

# get_value(readout='Population Membrane Permeable-Phenotype (%)', item= `CN1CCC(C(=O)c2cccc(NC(=O)c3c(F)cc(F)cc3F)n2)CC1` )
0

# get_value(readout='Population Membrane Permeable-Phenotype (%)', item= `Cc1cc(NC(=O)NCCN2CCC(O)(Cc3ccccc3)CC2)c2ccccc2n1` )
0

# get_value(readout='Population Membrane Permeable-Phenotype (%)', item= `CN1CCN(c2ccc(Nc3c4ccccc4nc4ccccc34)cc2)CC1.Cl.Cl.O` )
0

# get_value(readout='Population Membrane Permeable-Phenotype (%)', item= `Cn1cc(C(=O)OCC2CCN(CCNS(C)(=O)=O)CC2)c2ccccc21` )
1

# get_value(readout='Population Membrane Permeable-Phenotype (%)', item= `CCc1nn2c(C)cc(C)nc2c1Cc1ccc(-c2nnc(C3CCNCC3)o2)cc1` )
0
